Tested on: HCT15
method_summary: Test A: Cytostatic Cell Culture Assay (GI50), HCT15
Type: cell-based
run_parameters: Homo sapiens, HCT-15, 120 h; HCT15 cells, 5 days, SRB; read-out: G150 Colon HCT15
property_label: log10 of IC50 (log10 of the value in nM)

compound: OC[C@H]1O[C@@H](n2ccc3c(-c4c[nH]cn4)ncnc32)[C@H](O)[C@@H]1O [Example 9]
log10 of IC50: 2.35
--
compound: OC[C@H]1O[C@@H](n2ccc3c(-c4cccs4)ncnc32)[C@H](O)[C@@H]1O [Example 6]
log10 of IC50: 1.89
--
compound: OC[C@H]1O[C@@H](n2cc(F)c3c(-c4ccco4)ncnc32)[C@H](O)[C@@H]1O [Example 20]
log10 of IC50: 1.76
--
compound: OC[C@H]1O[C@@H](n2ccc3c(-c4ccco4)ncnc32)[C@H](O)[C@@H]1O [Example 5]
log10 of IC50: 1.30
--
compound: OC[C@H]1O[C@@H](n2ccc3c(-c4ccoc4)ncnc32)[C@H](O)[C@@H]1O [Example 12]
log10 of IC50: 1.93
--
compound: OC[C@H]1O[C@@H](n2ccc3c(-c4ccn[nH]4)ncnc32)[C@H](O)[C@@H]1O [Example 16]
log10 of IC50: 3.03
--
compound: OC[C@H]1O[C@@H](n2ccc3c(-c4cc[nH]c4)ncnc32)[C@H](O)[C@@H]1O [Example 14]
log10 of IC50: 2.21
--
compound: OC[C@H]1O[C@@H](n2ccc3c(-c4cn[nH]c4)ncnc32)[C@H](O)[C@@H]1O [Example 17]
log10 of IC50: 2.83
--
compound: OC[C@H]1O[C@@H](n2cc(Cl)c3c(-c4cccs4)ncnc32)[C@H](O)[C@@H]1O [Example 30]
log10 of IC50: 1.91
--
compound: OC[C@H]1O[C@@H](n2cc(F)c3c(-c4ccoc4)ncnc32)[C@H](O)[C@@H]1O [Example 23]
log10 of IC50: 1.59
--
compound: OC[C@H]1O[C@@H](n2cc(F)c3c(-c4cc[nH]c4)ncnc32)[C@H](O)[C@@H]1O [Example 27]
log10 of IC50: 1.81
--
compound: OC[C@H]1O[C@@H](n2cc(Cl)c3c(-c4ccco4)ncnc32)[C@H](O)[C@@H]1O [Example 29]
log10 of IC50: 3.91
--
compound: OC[C@H]1O[C@@H](n2cc(F)c3c(-c4nccs4)ncnc32)[C@H](O)[C@@H]1O [Example 25]
log10 of IC50: 2.56
--
compound: OC[C@H]1O[C@@H](n2ccc3c(-c4ccc[nH]4)ncnc32)[C@H](O)[C@@H]1O [Example 7]
log10 of IC50: 3.39
--
compound: OC[C@H]1O[C@@H](n2ccc3c(-c4ccsc4)ncnc32)[C@H](O)[C@@H]1O [Example 13]
log10 of IC50: 1.99

Values were extracted from patent US8093226B2.
